Data origin: patent US8227506B2

# study.target: activated factor IIa (thrombin) (Homo sapiens)
# protocol.description: Determination of activated factor II (FIIa, thrombin)-inhibitory activity (chromogenic substrate S-2238)
# recorded.conditions: negative logarithm of the concentration suppressing 50% of the reaction rate of the control, 0.125 U/ml thrombin
value.type: IC50 (µM)
Field: numeric (µM). Do not append units.

Under activated factor IIa (thrombin) (Homo sapiens), report IC50 for N=C(N)c1ccc(O)c(OCCOC(=O)c2ccc(C(=N)N3CCCC3)cc2)c1 [Ex. 6, ditrifluoroacetate]
79.4

Give the observed IC50 of N#CCOc1ccc(C(=N)N)cc1OCCOC(=O)c1ccc(C(=N)N2CCCC2)cc1 [Ex. 20, ditrifluoroacetate] for activated factor IIa (thrombin) (Homo sapiens).
6.31
